Data origin: patent US20250154686A1

tested-on: Bcl-2 protein (Recombinant Human Bcl-2 Protein) (Homo sapiens, UniProt P10415)
Construct: purchased Novus Biologicals NBP2-34889
Sequence (P10415 whole entry): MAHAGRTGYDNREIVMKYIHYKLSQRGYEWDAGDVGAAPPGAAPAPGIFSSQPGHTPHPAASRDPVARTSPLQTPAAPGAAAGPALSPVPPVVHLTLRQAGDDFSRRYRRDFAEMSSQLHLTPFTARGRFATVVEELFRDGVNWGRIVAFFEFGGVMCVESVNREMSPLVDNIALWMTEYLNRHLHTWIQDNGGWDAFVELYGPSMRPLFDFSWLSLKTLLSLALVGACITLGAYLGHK
test-protocol: AS-MS evaluation of binding of the Example 4 mixture library (1200 compounds/well) to Bcl-2, ASMS ratio (%)
experimental-setup: replicate n = 2; mixture library; value belongs to the MS peak assigned to the compound
assay-endpoint: ASMS ratio (%) n = 2
Express your answer in %, writing the number without its unit.

# count of solved cases: 5
>>> assay_result("CCOc1cccc(-c2ccc(C(C)N3CCN(c4ccc(C(=O)NS(C)(=O)=O)cc4)CC3)cc2)c1 (stereo not drawn)")
1.4
>>> assay_result("CCOc1cccc(-c2cnn(-c3cc(C(=O)N4CCN(c5ccc(C(=O)NS(C)(=O)=O)cc5)CC4)cc(C(F)(F)F)c3)c2)c1")
0.0
>>> assay_result("CCOc1cccc(-c2cc(C(=O)N3CCN(c4ccc(C(=O)NS(=O)(=O)C(C)(C)C)nn4)CC3)cc(C(C)(C)C)c2)c1")
0.0
>>> assay_result("CCOc1cncc(-c2ccc(CN3CCN(c4ccc(C(=O)NS(=O)(=O)C(C)(C)C)cc4)CC3)cc2C)c1")
"−5.0"
>>> assay_result("CCOc1cccc(-c2cc(CN3CCN(c4ccc(C(=O)NS(=O)(=O)CC56CC7CC(CC(C7)C5)C6)nn4)CC3)cc(OC(F)(F)F)c2)c1")
0.5

Then this compound:
Q. Requested field: ASMS ratio (%) n = 2. Item: `CCOc1cccc(-c2ccc(CN3CCN(c4ccc(C(=O)NS(C)(=O)=O)nn4)CC3)c(CC)c2)c1`
A. 0.0

---

# key: entry, value: ASMS ratio (%) n = 1
tested-on: Bcl-2 protein (Recombinant Human Bcl-2 Protein) (Homo sapiens)
Construct: purchased Novus Biologicals NBP2-34889
test-protocol: AS-MS evaluation of binding of the Example 4 mixture library (1200 compounds/well) to Bcl-2, ASMS ratio (%)
experimental-setup: AS-MS, Example 4 mixture library, Bcl-2, replicate n = 1
Express your answer in %, writing the number without its unit.

# count of solved cases: 5
>>> assay_result("CCOc1cncc(-c2csc(C(=O)N3CCN(c4ccc(C(=O)NS(=O)(=O)c5ccc(NCCSc6ccccc6)c(C(F)(F)F)c5)nn4)CC3)c2)c1")
0.0
>>> assay_result("CCOc1cccc(-c2ccc(CN3CCN(c4ccc(C(=O)NS(=O)(=O)c5ccc(NCCSc6ccccc6)c(C(F)(F)F)c5)nn4)CC3)c3ccccc23)c1")
"−3.5"
>>> assay_result("CCOc1cccc(-c2csc(CN3CCN(c4ccc(C(=O)NS(=O)(=O)c5ccc(NCCSc6ccccc6)c(C(F)(F)F)c5)cc4)CC3)c2)c1")
8.0
>>> assay_result("CCOc1cccc(-c2ccc(CN3CCN(c4ccc(C(=O)NS(=O)(=O)CCC(F)(F)F)nn4)CC3)cc2F)c1")
0.0
>>> assay_result("CCOc1cncc(-c2ccc(CN3CCN(c4ccc(C(=O)NS(=O)(=O)c5ccc(NCCSc6ccccc6)c(C(F)(F)F)c5)cc4)CC3)c(CC)c2)c1")
0.0

Q. Requested field: ASMS ratio (%) n = 1. Item: `CCOc1cccc(-c2ccc(CN3CCN(c4ccc(C(=O)NS(=O)(=O)CCC(F)(F)F)cc4)CC3)c3ccccc23)c1`
A. 0.0

---

tested-on: Bcl-2 protein (Recombinant Human Bcl-2 Protein) (Homo sapiens)
Construct: purchased Novus Biologicals NBP2-34889
test-protocol: AS-MS evaluation of binding of the mixture libraries of Examples 8 and 9 to Bcl-2, ASMS ratio (%), Example 11
experimental-setup: ASMS ratio, replicate N1; mixtures obtained from Example 9, 10 uM Bcl-2 protein
assay-endpoint: AS-MS(%) N1
Express your answer in %, writing the number without its unit.

# count of solved cases: 5
>>> assay_result("CC(C(=O)Nc1ccc(F)cc1)c1cc(O)cc(N2CCN(c3ccc(C(=O)NS(=O)(=O)c4ccc(NCCSc5ccccc5)c([N+](=O)[O-])c4)cc3)CC2)c1 (stereo not shown) [2-2-d1E03-1-0454]")
34.7
>>> assay_result("Cc1ccc(NC(=O)C(C)c2cc(O)cc(N3CCN(c4ccc(C(=O)NS(=O)(=O)c5ccc(N[C@H](CCN6CCOCC6)CSc6ccccc6)c([N+](=O)[O-])c5)cc4)CC3)c2)cc1 (stereo partly shown) [2-2-d1E04-1-0446]")
57.8
>>> assay_result("CC(C(=O)Nc1ccc(C(F)(F)F)cc1)c1cc(O)cc(N2CCN(c3ccc(C(=O)NS(=O)(=O)c4ccc(N[C@H](CCN5CCOCC5)CSc5ccccc5)c([N+](=O)[O-])c4)cc3)CC2)c1 (stereo partly shown) [2-2-d1E04-1-0498]")
45.5
>>> assay_result("CCOc1cc(C(C)C(=O)Nc2ccccc2)cc(N2CCN(c3ccc(C(=O)NS(=O)(=O)c4ccc(N[C@H](CCN5CCOCC5)CSc5ccccc5)c([N+](=O)[O-])c4)cc3)CC2)c1 (stereo partly shown) [2-2-d1E04-2-0417]")
43.8
>>> assay_result("CC(C(=O)Nc1nc2ccccc2s1)c1cc(O)cc(N2CCN(c3ccc(C(=O)NS(=O)(=O)c4ccc(N[C@H](CCN5CCOCC5)CSc5ccccc5)c([N+](=O)[O-])c4)cc3)CC2)c1 (stereo partly shown) [2-2-d1E04-1-0495]")
59.4

Q. Requested field: AS-MS(%) N1. Item: CC(C(=O)Nc1ccccc1)c1cc(O)cc(N2CCN(c3ccc(C(=O)NS(=O)(=O)c4ccc(N[C@H](CCN5CCOCC5)CSc5ccccc5)c([N+](=O)[O-])c4)cc3)CC2)c1 (stereo partly shown) [2-2-d1E04-1-0417]
A. 70.3

Q. Subsequent entry: CCOc1cc(N2CCN(c3ccc(C(=O)NS(=O)(=O)c4ccc(N[C@H](CCN5CCOCC5)CSc5ccccc5)c([N+](=O)[O-])c4)cc3)CC2)cc2c1CCCC2C(=O)Nc1ccccc1 (stereo partly shown) [2-2-d1E04-2-0466]
A. 53.4

---

# key: entry, value: ASMS ratio (%) n = 1
tested-on: Bcl-2 protein (Recombinant Human Bcl-2 Protein) (Homo sapiens)
Construct: purchased Novus Biologicals NBP2-34889
test-protocol: AS-MS evaluation of binding of the Example 4 mixture library (1200 compounds/well) to Bcl-2, ASMS ratio (%)
experimental-setup: replicate n = 1; mixture library; value belongs to the MS peak assigned to the compound
Express your answer in %, writing the number without its unit.

# count of solved cases: 6
>>> assay_result("CCOc1cncc(-c2cc(CN3CCN(c4ccc(C(=O)NS(C)(=O)=O)nn4)CC3)cc(C(F)(F)F)c2)c1")
0.0
>>> assay_result("CCOc1cccc(-c2cc(CN3CCN(c4ccc(C(=O)NS(C)(=O)=O)cc4)CC3)cc(OCC)c2)c1")
0.0
>>> assay_result("CCOc1cncc(-c2ccc(C(=O)N3CCN(c4ccc(C(=O)NS(=O)(=O)C(C)(C)C)cc4)CC3)cc2C)c1")
0.0
>>> assay_result("CCOc1cccc(-c2ccc(CN3CCN(c4ccc(C(=O)NS(C)(=O)=O)nn4)CC3)cc2F)c1")
0.0
>>> assay_result("CCOc1cncc(-c2ccccc2CCC(=O)N2CCN(c3ccc(C(=O)NS(=O)(=O)C(C)(C)C)nn3)CC2)c1")
4.3
>>> assay_result("CCOc1cccc(-c2cnn(-c3cc(C(=O)N4CCN(c5ccc(C(=O)NS(=O)(=O)C(C)(C)C)cc5)CC4)cc(C(F)(F)F)c3)c2)c1")
0.0

Q. Requested field: ASMS ratio (%) n = 1. Item: `CCOc1cncc(-c2ccc(CN3CCN(c4ccc(C(=O)NS(=O)(=O)C(C)(C)C)cc4)CC3)c3ccccc23)c1`
A. 0.0

Q. Subsequent entry: `CCOc1cncc(-c2ccc(CN3CCN(c4ccc(C(=O)NS(=O)(=O)C(C)(C)C)nn4)CC3)c(CC)c2)c1`
A. 1.8

Q. Subsequent entry: `CCOc1cncc(-c2csc(CN3CCN(c4ccc(C(=O)NS(C)(=O)=O)cc4)CC3)c2)c1`
A. 0.0

Q. Subsequent entry: `CCOc1cccc(-c2ccc(CN3CCN(c4ccc(C(=O)NS(=O)(=O)C(C)(C)C)cc4)CC3)c(OC)c2)c1`
A. 0.0

Q. Subsequent entry: `CCOc1cccc(-c2cc(CN3CCN(c4ccc(C(=O)NS(C)(=O)=O)nn4)CC3)cc(OCC)c2)c1`
A. 0.0

Q. Subsequent entry: `CCOc1cncc(-c2cc(CN3CCN(c4ccc(C(=O)NS(=O)(=O)C(C)(C)C)cc4)CC3)cc(C(F)(F)F)c2)c1`
A. 0.0

Q. Subsequent entry: `CCOc1cncc(-c2ccc(CN3CCN(c4ccc(C(=O)NS(C)(=O)=O)nn4)CC3)cc2C)c1`
A. 0.0

Q. Subsequent entry: `CCOc1cncc(-c2cc(OC)c(CN3CCN(c4ccc(C(=O)NS(C)(=O)=O)nn4)CC3)c(OC)c2)c1`
A. 0.0

Q. Subsequent entry: `CCOc1cncc(-c2ccccc2CN2CCN(c3ccc(C(=O)NS(C)(=O)=O)nn3)CC2)c1`
A. 0.8

Q. Subsequent entry: `CCOc1cccc(-c2cc(OC)c(CN3CCN(c4ccc(C(=O)NS(=O)(=O)C(C)(C)C)cc4)CC3)c(OC)c2)c1`
A. 0.0

Q. Subsequent entry: `CCOc1cncc(-c2cnn(-c3cc(C(=O)N4CCN(c5ccc(C(=O)NS(=O)(=O)C(C)(C)C)nn5)CC4)cc(C(F)(F)F)c3)c2)c1`
A. 0.0

Q. Subsequent entry: `CCOc1cncc(-c2ccc(C(=O)N3CCN(c4ccc(C(=O)NS(=O)(=O)C(C)(C)C)cc4)CC3)c3ccccc23)c1`
A. 0.0

Q. Subsequent entry: `CCOc1cccc(-c2ccccc2CN2CCN(c3ccc(C(=O)NS(=O)(=O)C(C)(C)C)cc3)CC2)c1`
A. 0.0
